- Procedure details: Cytotoxicity (cytocidal) assay, MTT
- Type: cell-based
- Particulars: human, 50% reduction of cell viability, HEL299 cells, mock infection
- Protocol: All the final compounds 3a–f and 4a–g were assayed for their antiviral activity against several herpes viruses such as HSV-1 (strain F, VR-733), HSV-2 (strain MS, VR-540), VZV (Ellen, VR-1367), and HCMV (Davis, VR-807). Cytotoxicity data were measured in HEL299 (CCL-137) cells as described previously. […] Antiviral activity was measured using a standard cytopathic (CPE) inhibition assay as described before. […] Antiviral activity was measured by MTT assay and expressed as the EC50. […]
What CC50 at 3 days was measured for each of the following?

Some entries whose results are on file:
INSERT INTO assay_data (molecule, result) VALUES
  ('O=c1[nH]cnc2c1ncn2C[Se]CCO [Compound 3a]', '> 100 µM'),
  ('CNc1ncnc2c1ncn2C[Se]CCO [Compound 3b]', '> 100 µM'),
  ('Nc1ncnc2c1ncn2C[Se]CCO [Compound 3c]', '> 100 µM'),
  ('Nc1nc(N)c2ncn(C[Se]C(CO)CO)c2n1 [Compound 4f]', '> 100 µM');

Hey, can you go through the list below and give me CC50 at 3 days for every item?
1. O=c1[nH]cnc2c1ncn2C[Se]C(CO)CO [Compound 3d]
2. CNc1nc(N)nc2c1ncn2C[Se]CCO [Compound 4b]
3. Nc1nc(N)c2ncn(C[Se]CCO)c2n1 [Compound 4c]
4. Nc1nc(NC2CC2)c2ncn(C[Se]C(CO)CO)c2n1 [Compound 4g]
5. Nc1ncnc2c1ncn2C[Se]C(CO)CO [Compound 3f]
6. CNc1nc(N)nc2c1ncn2C[Se]C(CO)CO [Compound 4e]

["> 100 µM", "> 100 µM", "> 100 µM", "> 100 µM", "> 100 µM", "> 100 µM"]

Retrieve CC50 at 3 days measured for CNc1ncnc2c1ncn2C[Se]C(CO)CO [Compound 3e] and print it. > 100 µM

* * *

- Procedure details: Cytotoxicity (cytocidal) assay, MTT
- Assay type: cell-based
- Particulars: human, HEL299 (CCL-137) cells, mock-infected, 50% reduction of cell viability, mock infection
Measure name: CC50 at 3 days

Retrieve CC50 at 3 days measured for Nc1nc(O)c2ncn(COC(CO)CO)c2n1 [Compound 2, ganciclovir, reference compound] and print it. > 100 µM

* * *

Measure name: melting point

Some entries whose results are on file:
INSERT INTO results (smi, result) VALUES
  ('CNc1ncnc2c1ncn2C[Se]C(CO)CO', '180 to 183 °C'),
  ('Nc1ncnc2c1ncn2C[Se]CCO', '175 to 177 °C'),
  ('O=c1[nH]cnc2c1ncn2C[Se]CCO', '225 to 227 °C'),
  ('Nc1ncnc2c1ncn2C[Se]C(CO)CO', '186 to 188 °C'),
  ('Nc1nc(N)c2ncn(C[Se]C(CO)CO)c2n1', '193 to 196 °C'),
  ('CNc1nc(N)nc2c1ncn2C[Se]CCO', '183 to 185 °C'),
  ('CNc1ncnc2c1ncn2C[Se]CCO', '171 to 173 °C'),
  ('CNc1nc(N)nc2c1ncn2C[Se]C(CO)CO', '140 to 143 °C');

Could you now consider this next compound?
Retrieve melting point measured for Nc1nc(N)c2ncn(C[Se]CCO)c2n1 and print it. 84 to 86 °C
